Tested on: U2OS
assay.name: Incucyte cell viability with U2OS; note: unitless GR value; below 1 slowed growth and below 0 cell loss
Type: toxicity, cell-based
run.parameters: human, 0 h, 10 µM, compound concentration 10 uM, replicate number 2, timepoint 0 hours
value.type: Growth Rate
Output spec: single numeric token, no unit.

Give U2OS Growth Rate for O=C(NCCNCC(O)COc1ccc(O)cc1)N1CCOCC1.O=C(NCCNCC(O)COc1ccc(O)cc1)N1CCOCC1.O=C(O)/C=C/C(=O)O (configuration not stated) [XAMOTEROL FUMARATE] -1

Also `CCCCNNC(=O)c1ccc(Br)cc1` , if possible. -0.23

Please answer likewise for `N=C(N)NCCC[C@H](NC(=O)COCC(c1ccccc1)c1ccccc1)C(=O)O.O=C(O)C(F)(F)F` 0.34

Queued: `CCCn1c(=O)c2[nH]c(-c3ccc(OCC(=O)Nc4ccc(C#N)cc4)cc3)nc2n(CCC)c1=O` -1

Consider next the molecule `O=C1NC(=Nc2c(Cl)cccc2Cl)S/C1=C\c1ccc2nccnc2c1` in the same way. -0.91

Try `O=C([O-])[C@H]1O[C@H](OP(=O)([O-])OP(=O)([O-])OC[C@H]2O[C@@H](n3ccc(=O)[nH]c3=O)[C@H](O)[C@@H]2O)[C@H](O)[C@@H](O)[C@@H]1O.[Na+].[Na+].[Na+]` next. 0.71

Please give the result for `CCOc1ccc(Cc2nc3cc(C(=O)N(CC)CC)ccc3n2CC2CCCCC2)cc1` too. -1
